- Test target: human mGluR5 (Homo sapiens)
- Construct: expressed in transfected cells; host or cells: HEK293 cells stably expressing rat GLAST (EAAT1), stably transfected with pcDNAzeo3.1 carrying synthetic human mGluR5 DNA; zeocin-selected single clones
- Sequence (P41594 21-1212): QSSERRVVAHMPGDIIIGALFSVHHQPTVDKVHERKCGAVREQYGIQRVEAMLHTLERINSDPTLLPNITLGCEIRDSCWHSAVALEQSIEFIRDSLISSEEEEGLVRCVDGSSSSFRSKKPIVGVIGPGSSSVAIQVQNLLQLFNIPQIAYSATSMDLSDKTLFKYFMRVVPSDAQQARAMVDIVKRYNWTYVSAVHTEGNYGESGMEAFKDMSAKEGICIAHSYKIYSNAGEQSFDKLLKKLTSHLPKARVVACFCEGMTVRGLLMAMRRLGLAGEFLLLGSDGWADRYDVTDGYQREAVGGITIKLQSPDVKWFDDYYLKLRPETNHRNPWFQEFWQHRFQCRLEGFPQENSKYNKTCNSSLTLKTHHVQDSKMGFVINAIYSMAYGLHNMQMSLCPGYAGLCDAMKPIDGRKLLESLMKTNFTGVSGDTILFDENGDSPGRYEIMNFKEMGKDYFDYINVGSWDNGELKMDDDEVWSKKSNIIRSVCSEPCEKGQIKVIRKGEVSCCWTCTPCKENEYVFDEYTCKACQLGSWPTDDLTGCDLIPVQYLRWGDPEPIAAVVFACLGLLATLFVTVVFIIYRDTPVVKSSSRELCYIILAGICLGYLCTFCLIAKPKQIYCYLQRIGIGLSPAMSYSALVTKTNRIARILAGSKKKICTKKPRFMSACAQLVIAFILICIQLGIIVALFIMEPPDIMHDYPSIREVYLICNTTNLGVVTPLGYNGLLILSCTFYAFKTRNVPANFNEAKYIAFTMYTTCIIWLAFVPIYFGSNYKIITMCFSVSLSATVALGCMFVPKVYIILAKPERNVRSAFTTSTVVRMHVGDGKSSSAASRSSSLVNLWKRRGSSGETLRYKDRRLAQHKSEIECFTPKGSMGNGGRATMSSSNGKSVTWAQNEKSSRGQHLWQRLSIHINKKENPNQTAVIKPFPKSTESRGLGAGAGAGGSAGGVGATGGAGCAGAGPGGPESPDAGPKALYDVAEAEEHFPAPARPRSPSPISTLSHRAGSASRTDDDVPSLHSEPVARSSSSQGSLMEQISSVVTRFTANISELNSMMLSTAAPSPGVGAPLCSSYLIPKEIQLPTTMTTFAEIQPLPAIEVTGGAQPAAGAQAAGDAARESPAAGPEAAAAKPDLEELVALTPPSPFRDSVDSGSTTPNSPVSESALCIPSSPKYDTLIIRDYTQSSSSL
- Experiment notes: In vitro cell-based FLIPR calcium assay for positive modulation of the activation of mGluR5 by glutamate (PAM EC50)
- Cond: HEK293/GLAST cells expressing recombinant human mGluR5; FLIPR calcium signal; glutamate added at its EC20; read-out: mGluR5 PAM EC50
pEC50: −log10 of the molar value.
Readout: pEC50

Study these solved cases before continuing.
1. CC1(C)CCc2nc3nc(C#Cc4ccccn4)ccc3c(=O)n2C1 [Example 12.3]	7.00 to 7.52
2. CC1(C)CCn2c(nc3cc(C#Cc4cccc(F)c4)ccc3c2=O)C1 [Example 4.13]	> 8.00
3. CCOC(C)c1cnc2cc(C#Cc3cccc(F)c3)ccn2c1=O (centres unmarked) [Example 13.2]	> 8.00
4. COC1(C)CCc2nc3cc(C#Cc4ccccn4)ccc3c(=O)n2CC1 (centres unmarked) [Example 6.50]	7.00 to 7.52

Recorded pEC50 for O=c1c2ccc(C#Cc3ccc(F)cc3)cc2nc2n1CCCC2 [Example 4.5] , please? > 8.00
